Below is a list of entries, each paired with its recorded melting point value.

{"compound": "C[C@H]1CC[C@H]2[C@@H]3CC[C@@H]4C[C@H](OC(=O)C5CCC(=O)N5)CC[C@]4(C)[C@H]3CC[C@]12C (stereo partly drawn)", "melting point": "157 to 158 °C"}
{"compound": "C[C@@]12CCC[C@H]1[C@@H]1CC[C@@H]3C[C@H](OCCOC(=O)C4CCC(=O)N4)CC[C@]3(C)[C@H]1CC2 (stereo partly drawn)", "melting point": "110 to 111 °C"}
{"compound": "CC(=O)[C@H]1CC[C@H]2[C@@H]3CC[C@@H]4C[C@H](OC(=O)C5CCC(=O)N5)CC[C@]4(C)[C@H]3[C@H](O)C[C@]12C (stereo partly drawn)", "melting point": "183 to 185 °C"}
